- ASSAY EXPLANATION: RP, Phenomenex Kinetex C18, 150 × 2.1 mm, 1.7 µm, 30 °C, 0.3 mL/min, estimated dead time 1.1 min; A: water + 0.1% formic acid, pH 3; B: acetonitrile + 0.1% formic acid, pH 3; gradient (min/%B) 0/2 14/100 17/100 17.1/2 25/2
- EXPERIMENTAL PARAMETERS: stereoisomer not certain
Exercise: for every item that follows, state its recorded LC retention time.
Give your result in min as a bare value.

Prompt line: Input Cc1c[nH]c(=O)[nH]c1=O , output reported LC retention time.
Response line: 2.42

Prompt line: Input CC(C)(CO)C(O)C(=O)NCCC(=O)O (centres undefined) [PANTOTHENATE] , output reported LC retention time.
Response line: 3.4

Prompt line: Input O=c1[nH]c(=O)c2ncn(C3OC(CO)C(O)C3O)c2[nH]1 (centres undefined) , output reported LC retention time.
Response line: 3.01

Prompt line: Input Cc1cc2nc3c(=O)[nH]c(=O)nc-3n(CC(O)C(O)C(O)CO)c2cc1C (centres undefined) , output reported LC retention time.
Response line: 4.65

Prompt line: Input COc1ccc2[nH]cc(CCNC(C)=O)c2c1 , output reported LC retention time.
Response line: 6.29

Prompt line: Input CC(CCC(=O)O)C1CCC2C3C(O)CC4CC(O)CCC4(C)C3CCC12C (centres undefined) [CHENODEOXYCHOLATE] , output reported LC retention time.
Response line: 10.7

Prompt line: Input CCCCCCCCCC(=O)OCC(COP(=O)([O-])OCC[N+](C)(C)C)OC(=O)CCCCCCCCC (centres undefined) , output reported LC retention time.
Response line: 12.8

Prompt line: Input CC(CCC(=O)O)C1CCC2C3C(O)CC4CC(O)CCC4(C)C3CC(O)C12C (centres undefined) [CHOLATE] , output reported LC retention time.
Response line: 9.02

Prompt line: Input O=C(C=Cc1ccc(O)c(O)c1)OC(Cc1ccc(O)c(O)c1)C(=O)O (centres undefined) [ROSMARINATE] , output reported LC retention time.
Response line: 6.25

Prompt line: Input O=C(O)CCCCCC(=O)O [6-CARBOXYHEXANOATE] , output reported LC retention time.
Response line: 4.56

Prompt line: Input CC(O)(CC(=O)O)C(=O)O (centres undefined) [CITRAMALATE] , output reported LC retention time.
Response line: 1.94

Prompt line: Input O=C(O)c1cc(=O)c2ccccc2[nH]1 [KYNURENATE] , output reported LC retention time.
Response line: 4.19

Prompt line: Input N[C@@H](Cc1cc(I)c(Oc2ccc(O)cc2)c(I)c1)C(=O)O , output reported LC retention time.
Response line: 6.44

Prompt line: Input O=c1cc[nH]c(=O)[nH]1 , output reported LC retention time.
Response line: 1.41

Prompt line: Input CCCCCC=CCC=CCC=CCCCCC(=O)[O-] [GAMMA-LINOLENATE] , output reported LC retention time.
Response line: 11.8

Prompt line: Input C=C(CC(=O)O)C(=O)O [ITACONATE] , output reported LC retention time.
Response line: 3.16

Prompt line: Input N[C@@H](Cc1cc(I)c(O)c(I)c1)C(=O)O , output reported LC retention time.
Response line: 4.8

Prompt line: Input NC(CCOC(=O)CCC(=O)O)C(=O)O (centres undefined) , output reported LC retention time.
Response line: 1.45

Prompt line: Input CCCC(N)C(=O)O (centres undefined) , output reported LC retention time.
Response line: 1.33

Prompt line: Input O=C(O)c1ccnc2ccccc12 [4-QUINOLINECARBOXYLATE] , output reported LC retention time.
Response line: 2.29

Prompt line: Input NC(Cc1ccc(O)cc1)C(=O)O (centres undefined) , output reported LC retention time.
Response line: 2

Prompt line: Input CCC(C)C(N)C(=O)O (centres undefined) , output reported LC retention time.
Response line: 1.9

Prompt line: Input CC1NCCc2cc(O)c(O)cc21 (centres undefined) , output reported LC retention time.
Response line: 1.95

Prompt line: Input Nc1ncnc2c1ncn2C1OC(COP(=O)(O)O)C(OP(=O)(O)O)C1O (centres undefined) [ADENOSINE 3',5'-DIPHOSPHATE] , output reported LC retention time.
Response line: 1.36

Prompt line: Input O=C([O-])Cc1ccccc1 [PHENYLACETATE] , output reported LC retention time.
Response line: 3.97

Prompt line: Input O=C(O)CCCCCCCC(=O)O [AZELATE] , output reported LC retention time.
Response line: 6.14

Prompt line: Input O=c1ccn(C2OC(CO)C(O)C2O)c(=O)[nH]1 (centres undefined) , output reported LC retention time.
Response line: 1.88

Prompt line: Input Nc1ncnc2c1ncn2C1OC(CO)C(O)C1O (centres undefined) , output reported LC retention time.
Response line: 2.34

Prompt line: Input CC12CCC(=O)C=C1CCC1C2C(=O)CC2(C)C1CCC2(O)C(=O)CO (centres undefined) , output reported LC retention time.
Response line: 7.16
